B1: CPEB3 Ribozyme (parent)
chain: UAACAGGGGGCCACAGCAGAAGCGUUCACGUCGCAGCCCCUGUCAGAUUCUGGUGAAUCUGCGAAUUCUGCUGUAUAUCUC

# Variants of: B1
# assayOverview: self-cleavage, relative activity (ratio to wild type); higher = more cleavage; in vitro, sequencing
Label rule, in plain words: self-cleavage of 0.3 and up is y, under 0.3 is n.

A selection of reference data follows.
sequencechange="G42A A45C" label=y
sequencechange="A20C U26C" label=y
sequencechange="A15G A65G" label=y
sequencechange="G53A U76C" label=y

Asked: Evaluate A3U A28U : self-cleavage at minimum 0.3?
Given back: y

Asked: Evaluate U31A U74G : self-cleavage at minimum 0.3?
Given back: y

Asked: Evaluate C17G : self-cleavage at minimum 0.3?
Given back: y

Asked: Evaluate C44G U67C : self-cleavage at minimum 0.3?
Given back: n
